Reference source: PubChem BioAssay AID743396

Recorded % fluorescent cells increase by entry
# protocol: compound fluorescence in GFP channel, mTEFS cells – imaging, mTEFS fibroblasts, cherry-pick, artefact control for X-chromosome reactivation project, dose response (AID 743396);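 note: raw share of Hoechst-counted cells scored GFP positive without control normalization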
# measurement_conditions: mTEFS fibroblasts autofluorescence, GFP-channel imaging, 3 days; at 19.5 µM (top of the series); cells pretreated with 5-aza-dC
quantity_measured: % fluorescent cells increase (%)

- C/C=C/c1ccc(C2[C@H]3CNC[C@@H]2N3Cc2cc(-c3ccccc3)on2)cc1 (some centres undefined): -0.166
- COc1ccc(CN(C)C[C@H]2OCCCC[C@H](C)Oc3ccc(NC(=O)Nc4ccc(F)cc4)cc3C(=O)N([C@H](C)CO)C[C@H]2C)cc1: 0.183
- O=C(OCc1cc(=O)n2c(n1)sc1ccccc12)c1ccc(O)cc1O: -0.007
- CC(C)OC(=O)/C(=C\c1cccnc1)NC(=O)c1ccccc1: 0.013
- Brc1cccc(CNCC2CCCO2)c1 (centres undefined): 0.009
- CCOC(=O)[C@]12CCC=C1N(Cc1ccccc1)C(=O)[C@H](CC(=O)N1CCSCC1)C2: 0.038
- Cc1ccccc1OCC(O)CNC1CCC(NCC(O)COc2ccccc2C)CC1 (centres undefined): 0
- CCOC(=O)c1cnc(-c2ccc(C(F)(F)F)cn2)[nH]c1=O: 11.4
- CCOc1cccc(/C=N/NC(=S)Nc2cc(S(=O)(=O)N3CCOCC3)ccc2N2CCOCC2)c1O: 0
- CCN(CC(=O)Nc1sc2c(c1C#N)CCCC2)CC(=O)NC1CCS(=O)(=O)C1 (centres undefined): 0.225
- C[C@@H]1CN([C@H](C)CO)C(=O)c2cc(NS(=O)(=O)c3ccc(F)cc3)ccc2O[C@@H](C)CCCCO[C@@H]1CN(C)Cc1ccc2c(c1)OCO2: 0
- Cc1noc(C)c1S(=O)(=O)Nc1ccc2c(c1)C(=O)N([C@H](C)CO)C[C@H](C)[C@H](CN(C)C(=O)Nc1ccc(F)cc1)OCCCC[C@H](C)O2: 0
- CC(C)NC(=O)N(C)C[C@@H]1OCCCC[C@H](C)Oc2ccc(NC(=O)Nc3ccc(C(F)(F)F)cc3)cc2C(=O)N([C@H](C)CO)C[C@@H]1C: 0
- CCC(=O)N1CC(=O)N2[C@@H](CO)[C@@H](c3ccc(-c4ccccc4F)cc3)[C@@H]2C1: 0
- CC(=O)C1=NN(c2ccc(Cl)cc2)C(c2ccc3c(c2)OCO3)N(C(C)=O)N1C (centres undefined): -0.011
- Cc1ccc(N2C(=O)C3C4C=CC(CNC(=S)N5CCN(c6ccccc6)CC5)(O4)C3C2=O)cc1 (centres undefined): 1.71
- COc1cc(/C=C/C(=O)c2ccc([N+](=O)[O-])o2)ccc1O: 5.15
- Cc1occc1C(=O)N/N=C/C(Br)=C\c1ccccc1: -0.004
- ClC1CCCCC1n1nnc2ccccc21 (centres undefined): 0.006
